Test system: pepper phytophthora blight (Phytopthora capsici)
Test: Suppression of pepper phytophthora blight on leaves
Format: in vivo
Conditions: pepper leaves, 1.0 ppm
Description: The peppers were raised in the same method as Example 3, and then, the test compounds were dissolved in 20% methanol to make a stock solution, and a stock was diluted to the concentrations of 0.1, 1.0, and 10.0 ppm. The test solutions were sprayed on the leaves or drench-treated on the leaves. […] The paper disc was located in the center of the leaves that were cut roundly, and then, after about 7 days, the lesion area was measured. […]
Peptide text beside a SMILES is read from it. * marks the point of attachment. Boc = CC(C)(C)OC(=O)*
Endpoint label: Lesion outbreak rate
Please report the result as a number followed by the unit.

Solved cases (2 shown):
>  <Compound>
COC(=O)CNC(=O)[C@H](CO)NC(=O)OC(C)(C)C [Compound 81] (Boc-Ser-Gly-OMe)

>  <Tested system>
pepper phytophthora blight (Phytopthora capsici)

>  <Lesion outbreak rate>
58 area %

$$$$
>  <Compound>
CCC(C)C(NC(=O)OC(C)(C)C)C(=O)N1CCCC1C(=O)OC (stereo not drawn) [Compound 85] (Boc-Ile-Pro-OMe; configuration not given here)

>  <Tested system>
pepper phytophthora blight (Phytopthora capsici)

>  <Lesion outbreak rate>
15 area %

$$$$

// switching to the query compound
Q. Which Lesion outbreak rate reading was recorded for the compound COC(=O)C[C@H](NC(=O)OC(C)(C)C)C(=O)N[C@@H](Cc1ccccc1)C(=O)OC [Compound 90] (Boc-Asp(OMe)-Phe-OMe) ?
A. 7.2 area %

###

Kindly supply the reported Lesion outbreak rate values for the records listed here.
test system: pepper phytophthora blight (Phytopthora capsici); test: Suppression of pepper phytophthora blight on leaves; format: in vivo; settings: pepper leaves, 1.0 ppm
Peptide text beside a SMILES is read from it. * marks the point of attachment. Boc = CC(C)(C)OC(=O)*; Bz = O=C(c1ccccc1)*; OBn = c1ccc(CO*)cc1; OAll = C=CCO*
Please report the result as a number followed by the unit.

Solved cases (3 shown):
>  <Compound>
CCOC(=O)C(C)NC(=O)C(NC(=O)OC(C)(C)C)C(C)CC (stereo not shown) [Compound 80]

>  <Result>
8.9 area %

$$$$
>  <Compound>
COC(=O)[C@@H]1CCCN1C(=O)[C@H](Cc1c[nH]c2ccccc12)NC(=O)OC(C)(C)C [Compound 84] (Boc-Trp-Pro-OMe)

>  <Result>
33 area %

$$$$
>  <Compound>
C=CCOC(=O)C[C@H](NC(=O)c1ccccc1)C(=O)N[C@@H](Cc1ccccc1)C(=O)OC [Compound 99] (Bz-Asp(OAll)-Phe-OMe)

>  <Result>
18 area %

$$$$

Please give Lesion outbreak rate, item by item, for the list that follows.
1. COC(=O)[C@@H]1CCCN1C(=O)[C@H](C)NC(=O)OC(C)(C)C [Compound 86] (Boc-Ala-Pro-OMe)
2. COC(=O)C[C@H](NC(C)=O)C(=O)N[C@@H](Cc1ccccc1)C(=O)OC [Compound 96] (Ac-Asp(OMe)-Phe-OMe)
3. COC(=O)[C@H](Cc1ccccc1)NC(=O)[C@H](CC(=O)OCc1ccccc1)NC(=O)c1ccccc1 [Compound 101] (Bz-Asp(OBn)-Phe-OMe)

A.
83 area %
23 area %
27 area %

Q. Which Lesion outbreak rate reading was recorded for the compound C=CCOC(=O)C[C@H](NC(C)=O)C(=O)N[C@@H](Cc1ccccc1)C(=O)OC [Compound 98] (Ac-Asp(OAll)-Phe-OMe) ?
A. 12 area %

###

tested on: tobacco bacterial rot (Pectobacterium carotovorum); assay: Suppression of tobacco bacterial rot; assay type: in vivo, Pectobacterium carotovorum SCC1; details: Table 4, tobacco, 10 ppm
Square brackets hold non-standard residues; d marks the D form. Peptide text beside a SMILES is read from it. * marks the point of attachment. Boc = CC(C)(C)OC(=O)*; OtBu = CC(C)(C)O*
Binary classification by Lesion outbreak rate, with 40% as an inclusive lower bound for Criterion met; all other cases are Criterion not met.

# example entries with known answers
>  <Compound>
COC(=O)[C@@H]1CCCN1C(=O)[C@H](CCCNC(=NC(=O)OCc1ccccc1)NC(=O)OCc1ccccc1)NC(=O)OC(C)(C)C [Compound 31]

>  <Discrete label>
Criterion met

$$$$
>  <Compound>
COC(=O)[C@H]1CCCN1C(=O)[C@H](CCSC)NC(=O)OC(C)(C)C [Compound 40] (Boc-Met-[dP]-OMe)

>  <Discrete label>
Criterion met

$$$$
>  <Compound>
COC(=O)[C@H]1CCCN1C(=O)[C@H](Cc1ccccc1)NC(=O)OC(C)(C)C [Compound 42] (Boc-Phe-[dP]-OMe)

>  <Discrete label>
Criterion met

$$$$

Q. hey, is Lesion outbreak rate for this one >= 40%? COC(=O)[C@H]1CCCN1C(=O)[C@H](CO)NC(=O)OC(C)(C)C [Compound 39] (Boc-Ser-[dP]-OMe)
A. Criterion not met

Q. hey, is Lesion outbreak rate for this one >= 40%? COC(=O)[C@@H]1CCCN1C(=O)[C@H](Cc1c[nH]cn1)NC(=O)OC(C)(C)C [Compound 29]
A. Criterion met

Q. hey, is Lesion outbreak rate for this one >= 40%? COC(=O)[C@@H]1CCCN1C(=O)[C@@H]1CCCN1C(=O)OC(C)(C)C [Compound 27] (Boc-Pro-Pro-OMe)
A. Criterion not met

Q. hey, is Lesion outbreak rate for this one >= 40%? COC(=O)[C@H]1CCCN1C(=O)[C@H](CC(=O)OC(C)(C)C)NC(=O)OC(C)(C)C [Compound 37] (Boc-Asp(OtBu)-[dP]-OMe)
A. Criterion not met

###

tested on: tobacco bacterial rot (Pectobacterium carotovorum); assay: Suppression of tobacco bacterial rot; type: in vivo, Pectobacterium carotovorum SCC1; details: Table 6, tobacco, 10 ppm
Square brackets hold non-standard residues; d marks the D form. Peptide text beside a SMILES is read from it. * marks the point of attachment. Trt = c1ccc(C(c2ccccc2)(c2ccccc2)*)cc1; Boc = CC(C)(C)OC(=O)*
Binarize Lesion outbreak rate at 60%; below is T, at or above is F.

# example entries with known answers
>  <Compound>
COC(=O)[C@@H]1CCCN1C(=O)[C@H](CC(C)C)NC(=O)OC(C)(C)C [Compound 22] (Boc-Leu-Pro-OMe)

>  <Discrete label>
T

$$$$
>  <Compound>
COC(=O)[C@H]1CCCN1C(=O)[C@@H](CCC(N)=O)NC(=O)OC(C)(C)C [Compound 72] (Boc-[dQ]-[dP]-OMe)

>  <Discrete label>
F

$$$$
>  <Compound>
COC(=O)[C@H]1CCCN1C(=O)[C@H](CSC(c1ccccc1)(c1ccccc1)c1ccccc1)NC(=O)OC(C)(C)C [Compound 74] (Boc-Cys(Trt)-[dP]-OMe)

>  <Discrete label>
T

$$$$
>  <Compound>
COC(=O)[C@H](C)NC(=O)[C@@H](NC(=O)OC(C)(C)C)C(C)C [Compound 12] (Boc-Val-Ala-OMe)

>  <Discrete label>
T

$$$$
>  <Compound>
COC(=O)[C@@H]1CCCN1C(=O)[C@H](C)NC(=O)OC(C)(C)C [Compound 20] (Boc-Ala-Pro-OMe)

>  <Discrete label>
F

$$$$

Q. Regarding COC(=O)[C@H](Cc1c[nH]c2ccccc12)NC(=O)[C@@H](NC(=O)OC(C)(C)C)C(C)C [Compound 17] (Boc-Val-Trp-OMe) , kindly confirm whether its Lesion outbreak rate is beneath 60%.
A. T

Q. Regarding COC(=O)[C@H]1CCCN1C(=O)[C@@H](CC(C)C)NC(=O)OC(C)(C)C [Compound 75] (Boc-[dL]-[dP]-OMe) , kindly confirm whether its Lesion outbreak rate is beneath 60%.
A. F

###

tested on: tobacco bacterial rot (Pectobacterium carotovorum); experiment: Suppression of tobacco bacterial rot; format: in vivo, Pectobacterium carotovorum SCC1; conditions: Table 4, tobacco, 10 ppm
Square brackets hold non-standard residues; d marks the D form. Peptide text beside a SMILES is read from it. * marks the point of attachment. Boc = CC(C)(C)OC(=O)*
Endpoint label: Lesion outbreak rate (%)
Give bare numbers, in %.

Solved cases (2 shown):
>  <Compound>
COC(=O)[C@H]1CCCN1C(=O)[C@H](CC(C)C)NC(=O)OC(C)(C)C [Compound 36] (Boc-Leu-[dP]-OMe)

>  <Endpoint label>
Lesion outbreak rate

>  <Measured number>
41

$$$$
>  <Compound>
COC(=O)[C@@H]1CCCN1C(=O)[C@H](CC(N)=O)NC(=O)OC(C)(C)C [Compound 26] (Boc-Asn-Pro-OMe)

>  <Endpoint label>
Lesion outbreak rate

>  <Measured number>
23

$$$$

Please give Lesion outbreak rate, item by item, for the list that follows.
1. COC(=O)[C@H]1CCCN1C(=O)[C@H](Cc1c[nH]cn1)NC(=O)OC(C)(C)C
2. COC(=O)C1CCCN1C(=O)C(NC(=O)OC(C)(C)C)C(C)O (stereo not drawn) [Compound 24] (Boc-Thr-Pro-OMe; configuration not given here)
3. COC(=O)[C@H]1CCCN1C(=O)[C@H](CC(N)=O)NC(=O)OC(C)(C)C [Compound 41] (Boc-Asn-[dP]-OMe)
4. COC(=O)[C@H]1CCCN1C(=O)[C@H](Cc1ccc(O)cc1)NC(=O)OC(C)(C)C [Compound 35] (Boc-Tyr-[dP]-OMe)

A.
[70, 65, 50, 43]
